Biological target: UniProt:P13807
Assay: Measurement of glycogen synthase activity (coupled pyruvate kinase/lactate dehydrogenase assay, absorbance at 340 nm)
Assay type: biochemical
Settings: concentration inducing relative activity of 50% (100% = Ex. 1 of WO/2011/058154 at 10 μM); incubation at 37° C. for 20 minutes (Examples 11 to 75)
Record form. Attribute: EC50. Fill in for each entry.
Answer format: numeric, nM implied, no suffix.

Request: Would you kindly share the measured EC50 for `O=C(O)[C@@H]1CCCN1C(=O)c1cccc(COc2ccc(-c3cccc4ccsc34)cc2)c1` ?
Response: 890

Request: Here is the next molecule: `CSc1cc(F)c(F)cc1-c1ccc(OCc2cccc(C(=O)N3CCC[C@H]3C(=O)O)c2)cc1`
Response: 29

Request: Here is the next molecule: `O=C(O)[C@@H]1CCCN1C(=O)c1cccc(COc2ccc(-c3ccc(F)c4c3C=CCO4)cc2)c1`
Response: 210

Request: Here is the next molecule: `O=C(O)[C@@H]1CCCN1C(=O)c1cccc(COc2ccc(-c3cc4ccoc4c(F)c3F)cc2)c1`
Response: 35

Request: Here is the next molecule: `C=CCOc1cc(F)c(F)cc1-c1ccc(OCc2cccc(C(=O)N3CCC[C@H]3C(=O)O)c2)cc1`
Response: 110

Request: Here is the next molecule: `Cc1csc2c(-c3ccc(OCc4cccc(C(=O)N5CCC[C@H]5C(=O)O)c4)cc3)cc(F)c(F)c12`
Response: 85

Request: Here is the next molecule: `O=C(O)[C@@H]1CCCN1C(=O)c1cccc(COc2ccc(-c3cc(F)cc4ccoc34)cc2)c1`
Response: 350

Request: Here is the next molecule: `O=C(O)[C@@H]1CCN1C(=O)c1cccc(COc2ccc(-c3cc(F)c(F)c4ccoc34)cc2)c1`
Response: 150

Request: Here is the next molecule: `O=C(O)[C@@H]1CCCN1C(=O)c1cccc(COc2ccc(-c3cc(F)c(F)c4ccsc34)cc2)c1`
Response: 42

Request: Here is the next molecule: `N#Cc1cc2c(F)c(F)cc(-c3ccc(OCc4cccc(C(=O)N5CCC[C@H]5C(=O)O)c4)cc3)c2s1`
Response: 590

Request: Here is the next molecule: `O=C(O)[C@@H]1CCCN1C(=O)c1cccc(COc2ccc(-c3cc(F)c(F)c4[nH]ccc34)cc2)c1`
Response: 34

Request: Here is the next molecule: `N#CCOc1cc(F)c(F)cc1-c1ccc(OCc2cccc(C(=O)N3CCC[C@H]3C(=O)O)c2)cc1`
Response: 15

Request: Here is the next molecule: `Cc1cc2c(F)c(F)cc(-c3ccc(OCc4cccc(C(=O)N5CCC[C@H]5C(=O)O)c4)cc3)c2o1`
Response: 110

Request: Here is the next molecule: `[2H]C([2H])([2H])Oc1cc(F)c(F)cc1-c1ccc(OCc2cccc(C(=O)N3CCC[C@H]3C(=O)O)c2)cc1`
Response: 10

Request: Here is the next molecule: `O=C(O)[C@@H]1CCCN1C(=O)c1cccc(COc2ccc(-c3cc(F)c(F)c4occc34)cc2)c1`
Response: 140

Request: Here is the next molecule: `C#CCOc1cc(F)c(F)cc1-c1ccc(OCc2cccc(C(=O)N3CCC[C@H]3C(=O)O)c2)cc1`
Response: 17

Request: Here is the next molecule: `O=C(O)[C@@H]1CCCN1C(=O)c1cccc(COc2ccc(-c3ccc(F)c4[nH]ccc34)cc2)c1`
Response: 230

Request: Here is the next molecule: `C#CCOc1cc(-c2ccc(OCc3cccc(C(=O)N4CCC[C@H]4C(=O)O)c3)cc2)cc(F)c1F`
Response: 150

Request: Here is the next molecule: `O=C(O)[C@@H]1CCCN1C(=O)c1cccc(COc2ccc(-c3cccc4c3CCC4)cc2)c1`
Response: 670

Request: Here is the next molecule: `COCc1cc2c(F)c(F)cc(-c3ccc(OCc4cccc(C(=O)N5CCC[C@H]5C(=O)O)c4)cc3)c2o1`
Response: 65

Request: Here is the next molecule: `Cc1coc2c(-c3ccc(OCc4cccc(C(=O)N5CCC[C@H]5C(=O)O)c4)cc3)cc(F)c(F)c12`
Response: 54

Request: Here is the next molecule: `Cc1cc2c(F)c(F)cc(-c3ccc(OCc4cccc(C(=O)N5CCC[C@H]5C(=O)O)c4)cc3)c2s1`
Response: 270

Request: Here is the next molecule: `N#CCOc1cc(-c2ccc(OCc3cccc(C(=O)N4CCC[C@H]4C(=O)O)c3)cc2)cc(F)c1F`
Response: 120

Request: Here is the next molecule: `O=C(O)[C@@H]1CSCN1C(=O)c1cccc(COc2ccc(-c3cc(F)c(F)c4ccoc34)cc2)c1`
Response: 340

Request: Here is the next molecule: `Cc1cc2c(-c3ccc(OCc4cccc(C(=O)N5CCC[C@H]5C(=O)O)c4)cc3)cc(F)c(F)c2[nH]1`
Response: 100

---

Target: human GYS1 (glycogen synthase) (Homo sapiens (Human), UniProt P13807)
Sequence (P13807 whole entry): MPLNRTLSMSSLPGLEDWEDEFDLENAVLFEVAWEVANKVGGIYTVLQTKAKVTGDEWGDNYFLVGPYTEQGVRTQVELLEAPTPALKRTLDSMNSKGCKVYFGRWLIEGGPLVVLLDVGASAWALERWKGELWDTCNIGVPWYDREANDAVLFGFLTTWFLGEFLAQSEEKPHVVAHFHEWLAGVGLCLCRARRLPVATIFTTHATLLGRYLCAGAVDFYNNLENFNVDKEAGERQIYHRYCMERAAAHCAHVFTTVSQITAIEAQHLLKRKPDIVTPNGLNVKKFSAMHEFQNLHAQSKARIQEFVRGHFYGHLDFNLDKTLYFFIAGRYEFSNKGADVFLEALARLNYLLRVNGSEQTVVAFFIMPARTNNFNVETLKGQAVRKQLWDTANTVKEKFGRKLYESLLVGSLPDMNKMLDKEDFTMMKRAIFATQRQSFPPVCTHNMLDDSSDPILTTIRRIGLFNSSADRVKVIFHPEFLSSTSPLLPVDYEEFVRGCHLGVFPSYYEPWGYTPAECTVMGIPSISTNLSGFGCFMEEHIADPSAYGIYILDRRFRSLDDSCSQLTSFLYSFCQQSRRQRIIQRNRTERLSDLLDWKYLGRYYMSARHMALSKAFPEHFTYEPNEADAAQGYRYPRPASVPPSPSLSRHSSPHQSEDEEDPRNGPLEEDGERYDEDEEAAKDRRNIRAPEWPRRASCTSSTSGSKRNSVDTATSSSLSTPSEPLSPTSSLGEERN
Assay: Measurement of glycogen synthase activity (coupled pyruvate kinase/lactate dehydrogenase assay, absorbance at 340 nm)
Type: biochemical
Conditions: concentration inducing relative activity of 50% (100% = Ex. 1 of WO/2011/058154 at 10 μM); incubation at 30° C. for 25 minutes (Examples 1 to 10)
observable: pEC50
The scale used: pEC50 is minus the common logarithm of the concentration in molar units.

Request: Would you kindly share the measured pEC50 for O=C(O)[C@@H]1CCCN1C(=O)c1cccc(COc2ccc(-c3ccc4occc4c3)cc2)c1 [compound of Ex. 6] ?
Response: 6.48

Request: Here is the next compound: CN(CC(=O)O)C(=O)c1cccc(COc2ccc(-c3cc(F)cc4c3OCC4)cc2)c1 [compound of Ex. 2]
Response: 6.23

Request: Here is the next compound: O=C(O)[C@@H]1CCCN1C(=O)c1cccc(COc2ccc(-c3ccc(F)c4ccoc34)cc2)c1 [compound of Ex. 3]
Response: 6.96

Request: Here is the next compound: O=C(O)[C@@H]1CCCN1C(=O)c1cccc(COc2ccc(-c3ccc(F)c4c3OCC4)cc2)c1 [compound of Ex. 10]
Response: 6.46

Request: Here is the next compound: Cc1cc2cccc(-c3ccc(OCc4cccc(C(=O)N5CCC[C@H]5C(=O)O)c4)cc3)c2o1 [compound of Ex. 8]
Response: 6.09

---

Target: human GYS1 (glycogen synthase) (Homo sapiens (Human), UniProt P13807)
Experiment: Measurement of glycogen synthase activity (coupled pyruvate kinase/lactate dehydrogenase assay, absorbance at 340 nm)
Format: biochemical
Conditions: concentration inducing relative activity of 50% (100% = Ex. 1 of WO/2011/058154 at 10 μM); incubation at 37° C. for 20 minutes (Examples 11 to 75)
Lab note: compare EC50 with 200 nM, writing class 1 if less and class 0 if equal or more.

Request: Say whether its EC50 is strictly beneath 200 nM. Entry: `O=C(O)[C@@H]1CCCN1C(=O)c1cccc(COc2ccc(-c3c(F)cc(F)c4ccoc34)cc2)c1`
Response: class 1

Request: Here is the next molecule: `N#Cc1cc2c(F)c(F)cc(-c3ccc(OCc4cccc(C(=O)N5CCC[C@H]5C(=O)O)c4)cc3)c2o1`
Response: class 0

Request: Here is the next molecule: `O=C(O)[C@@H]1CCCN1C(=O)c1cccc(COc2ccc(-c3ccc(F)c4c3OCO4)cc2)c1`
Response: class 0

Request: Here is the next molecule: `O=C(O)[C@@H]1CCCN1C(=O)c1cccc(COc2ccc(-c3ccc(F)c4occc34)cc2)c1`
Response: class 0

Request: Here is the next molecule: `C[C@@H](C(=O)O)N(C)C(=O)c1cccc(COc2ccc(-c3cc(F)c(F)c4ccoc34)cc2)c1`
Response: class 0

Request: Here is the next molecule: `N#CCc1coc2c(-c3ccc(OCc4cccc(C(=O)N5CCC[C@H]5C(=O)O)c4)cc3)cc(F)c(F)c12`
Response: class 1

Request: Here is the next molecule: `O=C(O)[C@@H]1CCCN1C(=O)c1cccc(COc2ccc(-c3cc(F)c4occc4c3F)cc2)c1`
Response: class 0

Request: Here is the next molecule: `O=C(O)[C@@H]1CCCN1C(=O)c1cccc(COc2ccc(-c3cc(F)c(F)c4ccoc34)cc2F)c1`
Response: class 1

Request: Here is the next molecule: `O=C(O)[C@@H]1CCCN1C(=O)c1cccc(COc2ccc(-c3cc(F)c4occc4c3)cc2)c1`
Response: class 1

Request: Here is the next molecule: `O=C(O)[C@@H]1CCCN1C(=O)c1cccc(COc2ccc(-c3cc(F)c(F)c4c3C=CCO4)cc2)c1`
Response: class 1

Request: Here is the next molecule: `COCc1coc2c(-c3ccc(OCc4cccc(C(=O)N5CCC[C@H]5C(=O)O)c4)cc3)cc(F)c(F)c12`
Response: class 0

Request: Here is the next molecule: `O=C(O)[C@@H]1C=CCN1C(=O)c1cccc(COc2ccc(-c3cc(F)c(F)c4ccoc34)cc2)c1`
Response: class 1

Request: Here is the next molecule: `NC(=NO)c1cc2c(F)c(F)cc(-c3ccc(OCc4cccc(C(=O)N5CCC[C@H]5C(=O)O)c4)cc3)c2o1`
Response: class 1
